biological target: Timeless DBD (Homo sapiens, UniProt Q9UNS1 816-954); experiment: fluorescence anisotropy; 150 mM KCl; FA at 25 C, 10 nM DNA: DBD in 25 mM HEPES-NaOH pH 7.2, 150 mM KCl, 0.5 mM EDTA, 0.005% Tween-20; Timeless-Tipin in 25 mM HEPES pH 7.1, 150 mM KCl, 1 mM DTT, 5 mM MgCl2; EMSA in 25 mM HEPES pH 7.1, 150 mM KCl, 5 mM MgCl2, 1 mM DTT on ice, 1% agarose at 4 C; details: protein: recombinant; tags: His14-SUMO removed; blunt
Sequence (Q9UNS1 816-954): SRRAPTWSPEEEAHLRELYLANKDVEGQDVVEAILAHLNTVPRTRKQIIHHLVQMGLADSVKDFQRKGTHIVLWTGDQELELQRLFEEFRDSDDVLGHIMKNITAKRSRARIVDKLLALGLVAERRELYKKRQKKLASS
outcomeMeasure: Kd

What value of Kd has been recorded for this entry: dsDNA (Fig 2D) (dsDNA) DNA 1: TGAGAGTGAGTAGAGTGAGTAA DNA 2: TTACTCACTCTACTCACTCTCA
~800 nM

Data credit: paper PMC7506991
